All figures here come from patent US10947188B2.

Test system: HT-1080
Assay: Modulatory profiling: Alamar Blue viability, lethal compound cotreated with death modulator (EC50, AUC)
Assay type: cell-based
Details: HT-1080, modulator LNAME
propertyMeasured: AUC HT.LNAME

>>> recordedvalue("CC(C)C[C@H](NC(=O)[C@H](Cc1ccccc1)NC(=O)c1cnccn1)B(O)O")
0.009924
>>> recordedvalue("CC1CC(C)(C)Nc2ccc(OC(=O)c3ccco3)cc21 (stereo not drawn)")
0.01005
